Test: Turbidity, derived count rate of scattered light
Assay type: physicochemical
Conditions: Log10 of derived count rate of scattered light (turbidity)
# if value of Log10 Count Rate reaches 2, tag criterion met; if it stays below, tag criterion not met

// known answers, use as guide
- Substance: "KIKQIIN"
  Category: "criterion not met"
- Substance: "KIKQIINM"
  Category: "criterion met"
- Substance: "CKFKFQFNM"
  Category: "criterion met"

Switching to the query record.
Textbook exercise: given the entry KNDKND , state whether its Log10 Count Rate is greater than or equal to 2.
criterion not met

====

Assay: Zeta-potential measurement
Type: physicochemical
Conditions: mean, Figure 7B
Quantity name: Zeta-Potential / mV (mV)
One number for each entry, in mV.

Worked examples follow.
- Substance: "LASLIYR [reference compound]"
  Measured result: -5.01
- Substance: "KLVFFAK [reference compound]"
  Measured result: 3.23
- Substance: "MKVIFLKDVKG [reference compound]"
  Measured result: 9.62
- Substance: "RCELARTLKR [reference compound]"
  Measured result: -0.85
- Substance: "NSGAITIG-NH2 [reference compound]"
  Measured result: -8.45

Provide Zeta-Potential / mV for all items below, preserving their order.
1. IFQINS [reference compound]
2. GNNQQNY [reference compound]
3. IIKIIK [reference compound]
4. RATVYV [reference compound]
5. GQTVTK [reference compound]

-10.98
-6.62
-7
-5.17
-5.26

Could you report Zeta-Potential / mV for every entry in the following list?
1. GYVIIK [reference compound]
2. IKFLSVN [reference compound]
3. GAITIG-NH2 [reference compound]
4. VHDCVNITIK [reference compound]
5. VLYVGSKT [reference compound]

9.88
5.9
-5.36
9.27
-9.07

====

Assignment: determine reported log Median Area in 3 * ( (1330 µm *1330 µm)) for the given substances.
Assay: Aggregate analysis by widefield fluorescence microscopy
Assay type: physicochemical
Settings: Fig S8 panels A, C
One number for each entry.

For each of the substances below, state log Median Area in 3 * ( (1330 µm *1330 µm)).
1. CKFKQFF [CK15]
2. HHHHKIKIKIKIWWWW [TM4]
3. HHHHKIKIQINMYYYY [TM16]

1: 3.351; 2: 1.389; 3: 1.443

====

Hi there, I'd appreciate the recorded Conversion Rate / % for every entry that follows.
Assay: Conversion rate (CR) assay with fluorescamine
Type: physicochemical
Settings: fluorescamine assay
Answers are plain numbers, in %.

Example results:
- Substance: "CEFEFQFNMWQ [TM140]"
  Quantity name: "Conversion Rate / %"
  Measured result: 98.63
- Substance: "HIHIQIC [CN12]"
  Quantity name: "Conversion Rate / %"
  Measured result: 82.72
- Substance: "RGECKFKFQF [CN16]"
  Quantity name: "Conversion Rate / %"
  Measured result: 98.71

Below is a list of substances. For each, state its recorded Conversion Rate / %.
1. KIKQIINMWQ [JG2]
2. KIKIQIC [TM112 / CN11]
3. CKFKQFFNMWQ [CK13]
4. RGEKIKIQINM [CN18]
5. CHLHLQL [CN9]

1: 94.17; 2: 51.55; 3: 98.72; 4: 80.28; 5: 96.58

====

Type: physicochemical
Conditions: FigS12 panel B
Quantity name: ThT Cat,

- Substance: "KFKQFFNMWQ"
  Quantity name: "ThT Cat,"
  Measured result: "0 (ThT-inactive (N-Fold <2))"
- Substance: "EIKIQINM"
  Quantity name: "ThT Cat,"
  Measured result: "1 (ThT. Cat is 1, if Rel. ThT >2)"
- Substance: "QCKAKAQANM"
  Quantity name: "ThT Cat,"
  Measured result: "0 (ThT-inactive (N-Fold <2))"
- Substance: "CETMYDKILKNLSRSR"
  Quantity name: "ThT Cat,"
  Measured result: "0 (ThT-inactive (N-Fold <2))"
- Substance: "HGEHGEHGE"
  Quantity name: "ThT Cat,"
  Measured result: "0 (ThT-inactive (N-Fold <2))"
- Substance: "KAKAKAQA"
  Quantity name: "ThT Cat,"
  Measured result: "0 (ThT-inactive (N-Fold <2))"
- Substance: "RPRGLLLGNLR"
  Quantity name: "ThT Cat,"
  Measured result: "0 (ThT-inactive (N-Fold <2))"
- Substance: "HHHHKAKAKAKAYYYY"
  Quantity name: "ThT Cat,"
  Measured result: "0 (ThT-inactive (N-Fold <2))"
- Substance: "HGEHGE"
  Quantity name: "ThT Cat,"
  Measured result: "0 (ThT-inactive (N-Fold <2))"
- Substance: "KFKFQF"
  Quantity name: "ThT Cat,"
  Measured result: "0 (ThT-inactive (N-Fold <2))"

Quick one: give me ThT Cat, for each item below, same order please.
1. KYKGAIIGNIK
2. CEIEIQINM
3. CKAKAQA
4. KLKLQLL
5. CEIEIQI

1. 0 (ThT-inactive (N-Fold <2))
2. 1 (ThT. Cat is 1, if Rel. ThT >2)
3. 0 (ThT-inactive (N-Fold <2))
4. 0 (ThT-inactive (N-Fold <2))
5. 1 (ThT. Cat is 1, if Rel. ThT >2)

Lab note: each substance below needs its ThT Cat, filled in.
1. KIKQII
2. CKIKQIIRGD

1. 0 (ThT-inactive (N-Fold <2))
2. 0 (ThT-inactive (N-Fold <2))

Kindly give each listed record's ThT Cat,.
1. HHHHKAKAKAKAWWWW
2. KIKIQIRGD
3. RGDKIKIQI
4. HGDKCHGDKC
5. MKFKFQF
6. FDPFDPFDP
7. CKYKYQY

1 (ThT. Cat is 1, if Rel. ThT >2)
1 (ThT. Cat is 1, if Rel. ThT >2)
1 (ThT. Cat is 1, if Rel. ThT >2)
0 (ThT-inactive (N-Fold <2))
0 (ThT-inactive (N-Fold <2))
0 (ThT-inactive (N-Fold <2))
1 (ThT. Cat is 1, if Rel. ThT >2)

Report ThT Cat, for each item below.
1. RLRLTLC
2. CKAKAQANMWQ
3. CHLHLQL
4. CSISIQI
5. QCKFKQFF
6. RGDKIRGDKI
7. KFKFQFN

0 (ThT-inactive (N-Fold <2))
0 (ThT-inactive (N-Fold <2))
1 (ThT. Cat is 1, if Rel. ThT >2)
1 (ThT. Cat is 1, if Rel. ThT >2)
1 (ThT. Cat is 1, if Rel. ThT >2)
0 (ThT-inactive (N-Fold <2))
0 (ThT-inactive (N-Fold <2))

For every listed record, write down its ThT Cat,.
1. NMWQKVGTPL
2. QCKAKAQANMWQ
3. KNDKND
4. KAKQAANMWQ
5. KLKQLL
6. KNERIKNERI
7. KAKAQA
8. MDQMDQMDQMDQMDQ

["1 (ThT. Cat is 1, if Rel. ThT >2)", "0 (ThT-inactive (N-Fold <2))", "0 (ThT-inactive (N-Fold <2))", "0 (ThT-inactive (N-Fold <2))", "0 (ThT-inactive (N-Fold <2))", "0 (ThT-inactive (N-Fold <2))", "0 (ThT-inactive (N-Fold <2))", "0 (ThT-inactive (N-Fold <2))"]

Provide the reported ThT Cat, of each entry below, same order.
1. KIKIKIQI
2. KIKIQI
3. HLHLPLL
4. HHHHEIEIEIEI
5. QCKIKQII
6. KIKIQII
7. KFKFEFEF

1: 1 (ThT. Cat is 1, if Rel. ThT >2); 2: 0 (ThT-inactive (N-Fold <2)); 3: 0 (ThT-inactive (N-Fold <2)); 4: 1 (ThT. Cat is 1, if Rel. ThT >2); 5: 1 (ThT. Cat is 1, if Rel. ThT >2); 6: 0 (ThT-inactive (N-Fold <2)); 7: 1 (ThT. Cat is 1, if Rel. ThT >2)

For each listed entry, give its ThT Cat,.
1. EIEIQINM
2. KAKAQANMWQ
3. KAKAQANM
4. CKIKQII

["0 (ThT-inactive (N-Fold <2))", "0 (ThT-inactive (N-Fold <2))", "0 (ThT-inactive (N-Fold <2))", "1 (ThT. Cat is 1, if Rel. ThT >2)"]

Report ThT Cat, for each item below.
1. KKFQKKFQ
2. KIKIQINMWQRGD
3. CKFKQFF

["0 (ThT-inactive (N-Fold <2))", "0 (ThT-inactive (N-Fold <2))", "0 (ThT-inactive (N-Fold <2))"]
